- assay-system: T1, human CLDN4 protein (human, UniProt O14493 1-209)
- T1 construct: whole, on cells; also called hCLDN4; claudin 4
- T1 sequence (looked up): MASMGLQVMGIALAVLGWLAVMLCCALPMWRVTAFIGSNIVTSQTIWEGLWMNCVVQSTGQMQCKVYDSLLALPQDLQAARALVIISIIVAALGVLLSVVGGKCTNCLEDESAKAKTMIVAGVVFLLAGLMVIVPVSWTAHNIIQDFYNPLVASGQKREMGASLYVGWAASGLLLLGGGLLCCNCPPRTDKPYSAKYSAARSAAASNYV
- test-method-notes: flow cytometry on cells overexpressing human CLDN4; 10 µg/mL purified antibody, Alexa 647 anti-mouse secondary; single point
Recorded measurements of MFI, one per entry
Just the number.

*Q* Could you tell me which MFI is on file for SC27.104 mouse monoclonal anti-CLDN antibody (antibody, V domains shown) VH: EVQLQQSGPELVKPGASVKISCKTSGYTFTEYTVHWVKQSHGKSLEWIGGVYPKNGDTTYNQKFRGKATLTVDKSSNTAYMELRSLTSEDSAVYYCTGKDGYDGFAYWGQGTLVTVSA VL: DIQMTQSSSSFSVSLGDRVTITCKASEDIYNRLAWYQQKPGNAPRLLISGATSLETGVPSRFSGSGSGKDYTLSITSLQTEDVATYYCQQYWSNPPTFGGGTKLEIK ?
*A* 22600

*Q* Value lookup for MFI; key = SC27.105 mouse monoclonal anti-CLDN antibody (antibody, V domains shown) VH: EVQLQQSGPELVKPGASVKISCKASGYSFTGYYMNWVKQSPEKSLEWIGEINPSTGSTTYNQKFKAKATLTVDKSSSTAYMQLKSLTSEDSAVYYCARRDYYYGSGFYAMDYWGQGTSVTVSS VL: DVQMTQSPSSLSASLGERVSLTCQASQSVSNNLNWYQQTPGKAPRLLIYGASKLEDGVSSRFSGTGYGTDFTFTISSLEEEDVATYFCLQHRYLWTFGGGTKLEIK
*A* 69

*Q* Using the record for SC27.201 mouse monoclonal anti-CLDN antibody (antibody, V domains shown) VL: DIQMTQSSSSFSVSLGDRVTITCKASEDIYNRLAWYQQKPGNAPRLLISGATSLEAGVPSGFSGSGSGKDYTLSITSLQTEDVATYYCQQYWSTPPTFGGGTKLELK V domain: EVQLQQSGPELVKPGASVKISCKTSGYTFTENIRHWVKQSRGKSLEWIGTINPNNGETRYNQKFKGKATLTVDKSSSTAYMELRSLTSEDSAVYYCTRGITKSPYGMDYWGQGTSITVSS , report its MFI.
*A* 23100
